Tgt: Nuclear respiratory factor 1 (Homo sapiens)
Measurement protocol: ATG_NRF1_CIS: Attagene CIS-FACTORIAL HepG2 Assay for human Nuclear Respiratory Factor 1 (NRF1) Orphan Gene (AID 2282987)
Test settings: HepG2 NRF1 cis-element reporter, Attagene multiplex; actives raise or lower the signal
The source made the active and inactive calls. The calls were made as follows: active = hit-call score of the fitted dose curve at least 0.9, where 1 is the maximum; inactive = score below 0.9.
Respond using exactly one of the listed classes: active, inactive

Use the examples below as a reference point.
Compound | Tgt | Label
Cc1ccc(S(N)(=O)=O)cc1 | Nuclear respiratory factor 1 (Homo sapiens) | inactive
CCCCCCCCCCCC(=O)OC[C@@H](O)[C@H]1OC[C@H](O)[C@H]1O | Nuclear respiratory factor 1 (Homo sapiens) | inactive
COCCOCCOCCO | Nuclear respiratory factor 1 (Homo sapiens) | inactive
CCOc1ccccc1O | Nuclear respiratory factor 1 (Homo sapiens) | inactive
CCCCCCCCCCCC(=O)OCC(O)CO (configuration not stated) | Nuclear respiratory factor 1 (Homo sapiens) | inactive
COc1cc([C@@H]2c3cc4c(cc3[C@@H](O[C@@H]3O[C@@H]5CO[C@@H](C)O[C@H]5[C@H](O)[C@H]3O)[C@H]3COC(=O)[C@H]23)OCO4)cc(OC)c1O | Nuclear respiratory factor 1 (Homo sapiens) | inactive

q: Please let me know the test result on file for CCCSc1ccc2nc(NC(=O)OC)[nH]c2c1 .
a: inactive

q: Queued: CCCCCCCCCCCCCCN(CCO)CCO
a: inactive

----------
Read-out: Monocyte Chemoattractant Protein-1 (MCP1), CCL2 (gene 6347)
Measurement protocol: BSK_4H_MCP1: BioMAP Diversity Plus: 4H Assay for Monocyte Chemoattractant Protein-1 (MCP1) Biomarker Activity (AID 2283018)
Test settings: primary human endothelial cells (HUVEC); actives raise or lower the signal
Calls of active or inactive are those of the source. How the source made its calls: active means hit-call score of the fitted dose curve at least 0.9, where 1 is the maximum; inactive means score below 0.9.
Respond using exactly one of the listed classes: active, inactive

Compound | Label
C1=CC2C3C=CC(C3)C2C1 (stereo not drawn) | inactive
Clc1cc(Cl)c(-c2c(Cl)c(Cl)cc(Cl)c2Cl)cc1Cl | active
O=C1OC[C@H](Cc2cccc(O)c2)[C@H]1Cc1cccc(O)c1 | inactive
COc1cc(Cl)c(OC)cc1N | inactive
CN(C)C(=O)Nc1ccc(Oc2ccc(Cl)cc2)cc1 | active
O=C1c2ccccc2C(=O)c2c(O)ccc(O)c21 | inactive

q: Please let me know the test result on file for O=C1OC2(c3ccccc31)c1ccc(O)c(Br)c1Oc1c2ccc(O)c1Br .
a: active

q: Queued: CC(=O)Nc1ccc(C(=O)CCl)cc1
a: active

----------
Measurement protocol: ATG_NRF2_ARE_CIS: Attagene CIS-FACTORIAL HepG2 Assay for human Nuclear Factor Erythroid 2 Related Factor 2 (NFR2) response to Antioxidant Response Elements (ARE) (AID 2282992)
Test settings: HepG2 Attagene ARE/NRF2 reporter, transcription factor activity; actives raise or lower the signal
Calls of active or inactive are those of the source. Rule for the calls: active = hit-call score of the fitted dose curve at least 0.9, where 1 is the maximum; inactive = score below 0.9.
Respond using exactly one of the listed classes: true (1) = active, false (0) = inactive

Molecule | Label
COC(C)(C)CCCC(C)CC=O (stereo not given) | false (0)
C=C(C)C1CC=C(C)C(=O)C1 (stereo not given) | false (0)
Clc1ccc(C(c2ccccc2Cl)C(Cl)Cl)cc1 (stereo not given) | true (1)

q: Please let me know the test result on file for CCCC[O][Al]([O]CCCC)[O]CCCC .
a: false (0)

q: Queued: O=C1CCCC=CCCCCCCCCCC1
a: true (1)

q: Queued: CCCCCCCCN1CCCC1=O
a: true (1)

q: Queued: C=CCCCCCCCCCC
a: false (0)

----------
Tgt: Retinoic acid receptor alpha (Homo sapiens)
Measurement protocol: ATG_DR5_RAR_CIS: Attagene CIS-FACTORIAL HepG2 Assay for human Retinoic Acid Receptor Alpha (RARE), DR5 submotif (AID 2282934)
Test settings: HepG2 Attagene cis-factorial RARE DR5 reporter, mRNA; actives raise or lower the signal
Activity calls are given as the source filed them. How the source made its calls: active means hit-call score of the fitted dose curve at least 0.9, where 1 is the maximum; inactive means score below 0.9.
Respond using exactly one of the listed classes: T for active, F for inactive

q: Please let me know the test result on file for BrCc1cccc(Oc2ccccc2)c1 .
a: T

q: Queued: CCCCC(CC)(CO)CO
a: F

q: Queued: C=CC(=O)OCCC#N
a: F

q: Queued: N#Cc1ccc(CC(=O)c2cccc(C(F)(F)F)c2)cc1
a: F

q: Queued: O=C(CS)OCCOC(=O)CS
a: T

q: Queued: CC(=O)O[C@H]1C[C@@H]2CC[C@@]1(C)C2(C)C
a: F

q: Queued: CCOC(=O)COC(=O)c1cc(Oc2ccc(C(F)(F)F)cc2Cl)ccc1[N+](=O)[O-]
a: F

q: Queued: COC(=O)c1ccc([N+](=O)[O-])cc1
a: F

q: Queued: Cc1c(C2(c3cc(Br)c(O)c(Br)c3C)OS(=O)(=O)c3ccccc32)cc(Br)c(O)c1Br
a: F

----------
Tgt: Nuclear receptor subfamily 1 group I member 2 (Homo sapiens)
Measurement protocol: ATG_PXR_TRANS: Attagene TRANS-FACTORIAL HepG2 Assay for human Pregnane X Receptor (PXR) (AID 2283008)
Results filed as inconclusive are left out. Activity calls are given as the source filed them. How the source made its calls: active means hit-call score of the fitted dose curve at least 0.9, where 1 is the maximum; inconclusive means response in the unintended direction; inactive means score below 0.9.
Respond using exactly one of the listed classes: active, inactive

Use the examples below as a reference point.
Molecule | Label
OCC(O)c1ccccc1 (stereo not given) | inactive
CCOC(=O)c1ccc(N)cc1 | inactive
COc1ccc(CCC(C)=O)cc1 | inactive

q: Please let me know the test result on file for Cc1cc(C)nc(NS(=O)(=O)c2ccc(N)cc2)n1 .
a: inactive

q: Queued: CC(=O)NCCO
a: inactive

----------
Tgt: X-box-binding protein 1 (Homo sapiens) (UniProt P17861)
Sequence (P17861 whole entry, looked up): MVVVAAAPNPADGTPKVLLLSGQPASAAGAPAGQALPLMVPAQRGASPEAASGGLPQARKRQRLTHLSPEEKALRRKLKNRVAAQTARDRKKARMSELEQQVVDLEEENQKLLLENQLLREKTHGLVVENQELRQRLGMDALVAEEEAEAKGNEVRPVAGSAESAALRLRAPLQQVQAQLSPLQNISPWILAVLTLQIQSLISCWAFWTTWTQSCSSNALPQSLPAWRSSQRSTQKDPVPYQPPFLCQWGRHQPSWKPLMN
Measurement protocol: ATG_Xbp1_CIS: Attagene CIS-FACTORIAL HepG2 Assay for human X-box Binding Protein 1 (XBP1) (AID 2282972)
Test settings: HepG2 XBP1 cis-element reporter, Attagene multiplex; actives raise or lower the signal
Active and inactive are the calls of the source. Rule for the calls: active = hit-call score of the fitted dose curve at least 0.9, where 1 is the maximum; inactive = score below 0.9.
Respond using exactly one of the listed classes: active, inactive

Use the examples below as a reference point.
Compound | Label
CCCN(CCC)S(=O)(=O)c1ccc(C(=O)O)cc1 | inactive
Oc1ccc2cc(SSc3ccc4cc(O)ccc4c3)ccc2c1 | active
CCCCCCCCSCCO | inactive

q: Please let me know the test result on file for COc1ccc(CCC(C)=O)cc1 .
a: inactive

q: Queued: CCCCC1CCC(O)CC1 (centres undefined)
a: inactive

----------
Measurement protocol: TOX21_p53_BLA_p4_viability: Viability Assessment in the Tox21 HCT-116 p53 Agonism Beta-lactamase Assay, Phase 4 (AID 2283597);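 also: hits lower the luminescence signal meaning cytotoxicity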
Records with an inconclusive call do not appear. Activity calls are given as the source filed them. The calls were made as follows: active = hit-call score of the fitted dose curve at least 0.9, where 1 is the maximum; inconclusive = response in the unintended direction; inactive = score below 0.9.
Respond using exactly one of the listed classes: active, inactive

Use the examples below as a reference point.
Molecule | Label
O=C(Nc1ccc2c(c1)Cc1ccccc1-2)C(F)(F)F | inactive
O=C1CCCC=CCCCCCCCCCC1 | inactive
COC(=O)c1cccnc1 | inactive
CCOC(=O)COC(=O)c1cc(Oc2ccc(C(F)(F)F)cc2Cl)ccc1[N+](=O)[O-] | inactive
CC=CC=CCOC(=O)C(C)C | inactive
CC(=O)c1ccccn1 | inactive
CCCC1O[C@@H]2C[C@H]3[C@@H]4CCC5=CC(=O)C=C[C@]5(C)[C@H]4[C@@H](O)C[C@]3(C)[C@]2(C(=O)CO)O1 (stereo not given in full) | inactive
c1ccc2[nH]cnc2c1 | inactive

q: Please let me know the test result on file for CCc1ncc(C)[nH]1 .
a: inactive

q: Queued: CN(C)C(=O)Nc1ccc(Oc2ccc(Cl)cc2)cc1
a: inactive

q: Queued: NC(=S)NNC(N)=S
a: inactive

q: Queued: CC(=O)C(C)O (stereo not given)
a: inactive

q: Queued: C=C(C)C(=O)OCCOC1CC2CC1C1C=CCC21 (stereo not given)
a: inactive

q: Queued: CCCCCCCC(=O)OCC(O)CO (stereo not given)
a: inactive

q: Queued: CCCC(=O)c1ccccc1
a: inactive

q: Queued: CCCCCCCCc1ccc(S(=O)(=O)O)cc1
a: active

q: Queued: CCC1(c2ccccc2)C(=O)NCNC1=O
a: inactive

q: Queued: c1ccc(Oc2ccccc2)cc1
a: inactive

q: Queued: C#CC(C)N(C)C(=O)Nc1ccc(Cl)cc1 (stereo not given)
a: inactive

q: Queued: COc1cc([C@@H]2c3cc4c(cc3[C@@H](O[C@@H]3O[C@@H]5CO[C@@H](C)O[C@H]5[C@H](O)[C@H]3O)[C@H]3COC(=O)[C@H]23)OCO4)cc(OC)c1O
a: inactive

q: Queued: CCCSc1ccc2nc(NC(=O)OC)[nH]c2c1
a: inactive

q: Queued: C=C(C)C(=O)OCC(CC)(COC(=O)C(=C)C)COC(=O)C(=C)C
a: inactive

q: Queued: c1ccc2cc(Nc3ccc(Nc4ccc5ccccc5c4)cc3)ccc2c1
a: inactive

q: Queued: Brc1ccc(Br)c(Br)c1
a: inactive

q: Queued: Nc1ccc(N)c2c1C(=O)c1ccccc1C2=O
a: inactive

q: Queued: C=CCCC(=O)/C=C/C1C(C)=CCCC1(C)C (stereo not given)
a: inactive

q: Queued: CCO/C=C1\N=C(c2ccccc2)OC1=O
a: inactive

q: Queued: CN1C(=O)c2ccccc2C1=O
a: inactive

q: Queued: OCc1ccc(Cl)cc1Cl
a: inactive

q: Queued: CC(C=O)Cc1ccc(C(C)(C)C)cc1 (stereo not given)
a: inactive
